# Target or system: GRK1 (Bos taurus)
# Construct: Bovine GRK1_1–535, bovine and human GRK2S670A; made in house
# Sequence (P28327 1-535): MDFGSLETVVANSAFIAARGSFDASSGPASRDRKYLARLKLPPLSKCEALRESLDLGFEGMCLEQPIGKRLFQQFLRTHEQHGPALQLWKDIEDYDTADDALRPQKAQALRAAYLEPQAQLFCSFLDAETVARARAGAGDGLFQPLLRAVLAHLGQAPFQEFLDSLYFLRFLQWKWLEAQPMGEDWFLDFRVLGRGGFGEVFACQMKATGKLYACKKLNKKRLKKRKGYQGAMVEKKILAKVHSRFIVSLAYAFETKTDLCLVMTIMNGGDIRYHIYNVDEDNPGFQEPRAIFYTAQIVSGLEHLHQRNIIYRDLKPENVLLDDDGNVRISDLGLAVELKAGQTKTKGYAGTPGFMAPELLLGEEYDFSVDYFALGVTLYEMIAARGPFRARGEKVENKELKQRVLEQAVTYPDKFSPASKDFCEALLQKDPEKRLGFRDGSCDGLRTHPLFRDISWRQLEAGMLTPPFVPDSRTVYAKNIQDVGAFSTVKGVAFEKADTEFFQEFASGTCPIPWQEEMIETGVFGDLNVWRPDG
# Method description: In vitro phosphorylation assay (tubulin, 5 μM ATP), GRK1
# Format: biochemical, bovine
# Measurement parameters: relative to paroxetine
Reported metric: GRK1 fold (increase in potency relative to paroxetine) (fold)
Lab book: enter the figure in fold, no units written.

Some compounds with known GRK1 fold (increase in potency relative to paroxetine) results, for comparison:
CC1=C(C(=O)Nc2ccc3[nH]ncc3c2)C(c2ccc3ccccc3c2)CC(=O)N1 (stereo not drawn) [GSK270822A] | 1
CC1=C(C(=O)Nc2cc(Cl)c3[nH]ncc3c2)C(c2ccc(C(F)(F)F)cc2)CC(=O)N1 (stereo not drawn) [GSK466317A] | 0
CCn1c(-c2nonc2N)nc2c(C#CC(C)(C)O)nc(O[C@@H](CN)c3ccccc3)cc21 [GSK1007102B] | 6
COc1cc2c(cc1Nc1nc(Nc3ccsc3C(N)=O)c3cc[nH]c3n1)N(C(=O)CN(C)C)CCC2 [GSK2110236A] | 631
CC(C)COC(=O)c1ccc2c(c1)/C(=C/Nc1ccc(S(N)(=O)=O)cc1)C(=O)N2 [GW416981X] | 0

Now look at this entry.
Tell us which GRK1 fold (increase in potency relative to paroxetine) value is on record for CNC(=O)c1ncccc1Nc1nc(Nc2cc3c(cc2OC)CCCN3C(=O)CN(C)C)nc2[nH]ccc12 [GSK2220400A]
40
